Data credit: PubChem BioAssay (NCI)

This listing pairs compounds with measured growth.
Test system: HL-60(TB) leukemia
Assay: NCI-60 one-dose screen, 48 h (100 = growth as untreated, 0 = no growth, -100 = all killed)
Details: 10 µM unless noted
Experimental: Growth inhibition of the HL-60(TB) human tumor cell line is measured as a screen for anti-cancer activity. Cells are grown in 96 well plates and exposed to the test compound for 48 hours. Compounds are tested at a single concentration, which is 10^-5 M for most compounds. The reported endpoint is percent growth (GI% or GIPRCNT), where numbers from 0 - 100% represent growth inhibition, and numbers from -100% - 0 represent cell death. For example, a value of 40 represents 60% growth inhibition. […]
Compounds without any hit were thinned out: in the full panel of roughly 83,000, 20% have a hit.

| compound | growth / % |
| --- | --- |
| Cc1nc2ncccc2nc1Nc1ccc(S(=O)(=O)Nc2ccccn2)cc1 | 100 |
| Cc1ccc(Nn2c(SCC(=O)Nc3nc(-c4ccccc4)cs3)nc(C)c2C)cc1 | 63.8 |
| CCOC(=O)[C@]1(Br)CC[C@@]1(Br)C(=O)OCC | 47.7 |
| OC(COc1ccccc1Cl)COc1ccccc1Cl | 94.3 |
| C[C@@H](O)[C@H]1C(=O)N2C(C(=O)O)=C(SCCN=CN)C[C@H]12 | 19.1 |
| O=C1c2ccc3c4ccc5c6c(ccc(c7ccc(c2c37)C(=O)N1CCC[P+](c1ccccc1)(c1ccccc1)c1ccccc1)c64)C(=O)N(CCC[P+](c1ccccc1)(c1ccccc1)c1ccccc1)C5=O | 54.6 |
| O=C1CC(N2C(=O)/C(=C/C(Cl)=C\c3ccc([N+](=O)[O-])cc3)SC2=S)C(=O)N1c1ccc(Cl)cc1 (stereo not given) | 21.3 |
| COc1ccc(/C=C/c2nc(Nc3ccc(Cl)cc3)c3ccccc3n2)cc1 | -11.3 |
| NCCCOc1cc2ccccc2cc1C(=O)NCCCOc1cc2ccccc2cc1C(=O)Nc1ccc(Cl)cc1O | -62 |
| CC(C)(C)OC(=O)N1CCCN(CCNc2nccc(-c3c(-c4cccc(O)c4)nc4sccn34)n2)S1(=O)=O | 104 |

====

test system: HL-60(TB) leukemia; test: NCI-60 one-dose screen, 48 h; settings: 100 µM
About 83,000 compounds went through this panel and 20% of them were active in at least one assay; those are over-represented in the sample as a whole. Active and inactive are the calls of the source. The calls were made as follows: active = growth percent below 10; inactive = the rest.
Classes used: TRUE = active, FALSE = inactive

| compound | qualitativeLabel |
| --- | --- |
| CCN(Cc1ccccc1)c1ccc(/C=C2\COc3ccccc3C2=O)cc1 | TRUE |
| Cc1[nH]c(-c2nc3ccccc3[nH]2)c(C)c1C(=O)NC(C)C1CCCCC1 (configuration not stated) | TRUE |
| COc1ccc(C(=O)/C=C/c2ccc(OCc3ccc(Cl)cc3)cc2)cc1OC | FALSE |
| CC#C[C@]1(O)CC[C@H]2[C@@H]3CCC4=CC(=O)CCC4=C3[C@@H](c3ccc4c(c3)OCO4)C[C@@]21C | TRUE |
| CC(=O)/C=C/c1ccc(OCc2ccc(Cl)cc2)cc1 | FALSE |
| O=C(/C=C/c1cccc(Oc2ccc(Cl)cc2)c1)c1ccccc1 | TRUE |
| CC(=O)/C=C/c1ccc(OCc2ccc(C(C)(C)C)cc2)cc1 | TRUE |

====

System: HL-60(TB) leukemia
Experiment: NCI-60 one-dose screen, 48 h
Settings: 10 µM unless noted
Protocol: Growth inhibition of the HL-60(TB) human tumor cell line is measured as a screen for anti-cancer activity. Cells are grown in 96 well plates and exposed to the test compound for 48 hours. Compounds are tested at a single concentration, which is 10^-5 M for most compounds. The reported endpoint is percent growth (GI% or GIPRCNT), where numbers from 0 - 100% represent growth inhibition, and numbers from -100% - 0 represent cell death. For example, a value of 40 represents 60% growth inhibition. […]
Compounds without any hit were thinned out: in the full panel of roughly 83,000, 20% have a hit. The source made the active and inactive calls. Rule for the calls: active = growth percent below 10; inactive = the rest.
Classes used: label 1 = active, label 0 = inactive

| substanceSmiles | studyTarget | qualitativeLabel |
| --- | --- | --- |
| Fc1c[c-]c(-c2ccccn2)c(F)c1.Fc1c[c-]c(-c2ccccn2)c(F)c1.[Cl][Pt+].[Cl][Pt+].c1ccc([PH+](C[PH+](c2ccccc2)c2ccccc2)c2ccccc2)cc1 | HL-60(TB) leukemia | label 1 |
| Fc1ccc(CNc2c3ccccc3nc3ccccc23)c(F)c1 | HL-60(TB) leukemia | label 0 |
| COC1=CC(c2ccc[nH]2)=N/C1=C\c1[nH]c(C)c(C(=O)OCc2ccccc2)c1C | HL-60(TB) leukemia | label 1 |
| Cc1cccc(Cl)c1NC(=O)c1ccc2nc(NC(=O)NC3CC(C)(C)NC(C)(C)C3)sc2c1 | HL-60(TB) leukemia | label 0 |
| Brc1ccc(-n2cc(-c3nn[nH]n3)c(-c3cccs3)n2)cc1 | HL-60(TB) leukemia | label 0 |
